Molecular target: T1, TNFR1 (Homo sapiens, UniProt P19438)
T1 chain: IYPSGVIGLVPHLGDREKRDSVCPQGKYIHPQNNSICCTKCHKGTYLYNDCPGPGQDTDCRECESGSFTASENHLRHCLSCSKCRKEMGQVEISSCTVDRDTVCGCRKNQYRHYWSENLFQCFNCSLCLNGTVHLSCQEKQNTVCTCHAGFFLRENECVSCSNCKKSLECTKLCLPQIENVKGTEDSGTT
Assay: yeast display SC50
measured-metric: apparent Kd (screen) (nM)

[
  {
    "binder": "E103M (designed binder) SMEEEVEKAAKEYEKKKKEAIEKHLEKLKAKDKEAAERFLKELEEAAKEYAKDEAKTMSEEEAKRRAKKYKEKVLLSELSEEEQKEIKEAEEKLVRTILKYVMEAAK",
    "value-reported": 0.593
  },
  {
    "binder": "A46M (designed binder) SMEEEVEKAAKEYEKKKKEAIEKHLEKLKAKDKEAAERFLKELEEMAKEYAKDEAKTMSEEEAKRRAKKYKEKVLLSELSEEEQKEIKEAEEKLVRTILKYVEEAAK",
    "value-reported": 0.117
  },
  {
    "binder": "S77G (designed binder) SMEEEVEKAAKEYEKKKKEAIEKHLEKLKAKDKEAAERFLKELEEAAKEYAKDEAKTMSEEEAKRRAKKYKEKVLLGELSEEEQKEIKEAEEKLVRTILKYVEEAAK",
    "value-reported": 2.48
  },
  {
    "binder": "K85C (designed binder) SMEEEVEKAAKEYEKKKKEAIEKHLEKLKAKDKEAAERFLKELEEAAKEYAKDEAKTMSEEEAKRRAKKYKEKVLLSELSEEEQCEIKEAEEKLVRTILKYVEEAAK",
    "value-reported": 0.539
  },
  {
    "binder": "H24I (designed binder) SMEEEVEKAAKEYEKKKKEAIEKILEKLKAKDKEAAERFLKELEEAAKEYAKDEAKTMSEEEAKRRAKKYKEKVLLSELSEEEQKEIKEAEEKLVRTILKYVEEAAK",
    "value-reported": 2.73
  },
  {
    "binder": "K52W (designed binder) SMEEEVEKAAKEYEKKKKEAIEKHLEKLKAKDKEAAERFLKELEEAAKEYAWDEAKTMSEEEAKRRAKKYKEKVLLSELSEEEQKEIKEAEEKLVRTILKYVEEAAK",
    "value-reported": 5.31
  },
  {
    "binder": "E103H (designed binder) SMEEEVEKAAKEYEKKKKEAIEKHLEKLKAKDKEAAERFLKELEEAAKEYAKDEAKTMSEEEAKRRAKKYKEKVLLSELSEEEQKEIKEAEEKLVRTILKYVHEAAK",
    "value-reported": 0.446
  },
  {
    "binder": "V6I (designed binder) SMEEEIEKAAKEYEKKKKEAIEKHLEKLKAKDKEAAERFLKELEEAAKEYAKDEAKTMSEEEAKRRAKKYKEKVLLSELSEEEQKEIKEAEEKLVRTILKYVEEAAK",
    "value-reported": 0.49
  },
  {
    "binder": "E82P (designed binder) SMEEEVEKAAKEYEKKKKEAIEKHLEKLKAKDKEAAERFLKELEEAAKEYAKDEAKTMSEEEAKRRAKKYKEKVLLSELSEPEQKEIKEAEEKLVRTILKYVEEAAK",
    "value-reported": 1.16
  },
  {
    "binder": "E12M (designed binder) SMEEEVEKAAKMYEKKKKEAIEKHLEKLKAKDKEAAERFLKELEEAAKEYAKDEAKTMSEEEAKRRAKKYKEKVLLSELSEEEQKEIKEAEEKLVRTILKYVEEAAK",
    "value-reported": 0.539
  },
  {
    "binder": "K100D (designed binder) SMEEEVEKAAKEYEKKKKEAIEKHLEKLKAKDKEAAERFLKELEEAAKEYAKDEAKTMSEEEAKRRAKKYKEKVLLSELSEEEQKEIKEAEEKLVRTILDYVEEAAK",
    "value-reported": 2.48
  },
  {
    "binder": "K8R (designed binder) SMEEEVERAAKEYEKKKKEAIEKHLEKLKAKDKEAAERFLKELEEAAKEYAKDEAKTMSEEEAKRRAKKYKEKVLLSELSEEEQKEIKEAEEKLVRTILKYVEEAAK",
    "value-reported": 0.869
  },
  {
    "binder": "E3I (designed binder) SMIEEVEKAAKEYEKKKKEAIEKHLEKLKAKDKEAAERFLKELEEAAKEYAKDEAKTMSEEEAKRRAKKYKEKVLLSELSEEEQKEIKEAEEKLVRTILKYVEEAAK",
    "value-reported": 12.5
  },
  {
    "binder": "K107H (designed binder) SMEEEVEKAAKEYEKKKKEAIEKHLEKLKAKDKEAAERFLKELEEAAKEYAKDEAKTMSEEEAKRRAKKYKEKVLLSELSEEEQKEIKEAEEKLVRTILKYVEEAAH",
    "value-reported": 1.86
  },
  {
    "binder": "D53S (designed binder) SMEEEVEKAAKEYEKKKKEAIEKHLEKLKAKDKEAAERFLKELEEAAKEYAKSEAKTMSEEEAKRRAKKYKEKVLLSELSEEEQKEIKEAEEKLVRTILKYVEEAAK",
    "value-reported": 0.446
  },
  {
    "binder": "K15V (designed binder) SMEEEVEKAAKEYEVKKKEAIEKHLEKLKAKDKEAAERFLKELEEAAKEYAKDEAKTMSEEEAKRRAKKYKEKVLLSELSEEEQKEIKEAEEKLVRTILKYVEEAAK",
    "value-reported": 1.05
  }
]
